Target: ASH1L PHD finger S2618A (human, UniProt Q9NR48 2579-2629, S2618A)
Ends that are not written are not given here. Me3 = trimethyl on lysine side chain
PROPERTY_LABEL: Kd (µM)
State just the number; it will be interpreted in µM.

If you can, please state the reported Kd value of ARTK(Me3)QTARKSTG [histone H3K4me3 peptide (aa 1-12 of H3)] .
5.9

Recorded values, source paper PMC11883000.
